Consider the following compounds; for each one, report its IC50.
target: Avi-KRAS G12V (1-169) GppNHp/RAF1 RBD-3xFLAG (52-151) (Homo sapiens, UniProt P01116, G12V); construct: Avi-KRAS G12V (1-169); assay: Raf1-KRAS G12V-GppNHP disruption HTRF assay (Biological Example 1); type: binding; conditions: KRAS G12V-GppNHp/RAF1 RBD HTRF
Sequence (P01116 1-169 isoform P01116-2 G12V): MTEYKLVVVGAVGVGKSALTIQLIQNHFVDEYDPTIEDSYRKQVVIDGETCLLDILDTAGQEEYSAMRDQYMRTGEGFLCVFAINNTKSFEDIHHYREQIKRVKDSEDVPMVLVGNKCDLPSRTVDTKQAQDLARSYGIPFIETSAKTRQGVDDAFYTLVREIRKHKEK

For every listed record, write down its IC50.
1. C[C@H]1[C@H](N(C)c2nc(OC[C@@]34CCCN3C[C@H](F)C4)nc3c(F)c(-c4ccc(F)c5sc(N)c(C#N)c45)c(C(F)(F)F)cc23)CCN1C(=O)C1CC1
2. CCN(c1nc(OC[C@@]23CCCN2C[C@H](F)C3)nc2c(F)c(-c3ccc(F)c4sc(N)c(C#N)c34)c(C(F)(F)F)cc12)[C@@H]1C[C@@H](C)N(C(=O)OC)C1 (atropisomer, axis not shown)
3. N#Cc1c(N)sc2c(F)ccc(-c3c(C(F)(F)F)cc4c(N5CCCN6C(=O)CCC6C5)nc(OCC56CCCN5CC(F)C6)nc4c3F)c12 (centres unmarked)
4. CCN(c1nc(OC[C@@]23CCCN2C[C@H](F)C3)nc2c(F)c(-c3ccc(F)c4sc(N)c(C#N)c34)c(C(F)(F)F)cc12)[C@H]1C[C@@H]2COC(=O)N2C1 (atropisomer, axis not shown)
5. N#Cc1c(N)sc2c(F)ccc(-c3c(C(F)(F)F)cc4c(N5CCC[C@H](CO)C5)nc(OC[C@@]56CCCN5C[C@H](F)C6)nc4c3F)c12
6. CN1CC(F)(F)C[C@H]1COc1nc(N2CC3CC(C2)O3)c2cc(C(F)(F)F)c(-c3ccc(F)c4sc(N)c(C#N)c34)c(F)c2n1
7. CC(=O)N1CCC2[C@H]1CCCN2c1nc(OC[C@@]23CCCN2C[C@H](F)C3)nc2c(F)c(-c3ccc(F)c4sc(N)c(C#N)c34)c(C(F)(F)F)cc12 (some centres unmarked)
8. CCN(c1nc(OC[C@@]23CCCN2C[C@H](F)C3)nc2c(F)c(-c3ccc(F)c4sc(N)c(C#N)c34)c(C(F)(F)F)cc12)[C@@H]1CCN(C(C)=O)[C@H]1C

1: 1000 to 10000 nM; 2: 100 to 1000 nM; 3: 1000 to 10000 nM; 4: 100 to 1000 nM; 5: 1000 to 10000 nM; 6: > 10000 nM; 7: 1000 to 10000 nM; 8: 100 to 1000 nM

The origin of these recorded values is patent US20260042764A1.
